Recorded values, source ChEMBL document CHEMBL1201861.

# System: ATN-1;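 further: growth inhibition of human ATN-1 cells, read out with a cell viability assay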
# Experiment notes: cells
# Type: functional, cell-based, Homo sapiens
# Measurement context: atn-1
# Description: SANGER: Inhibition of human ATN-1 cell growth in a cell viability assay.
pIC50: −log10 of the molar value. Where a SMILES comes first, the peptide text is derived from it. The star is where a group is joined. Cbz = O=C(OCc1ccccc1)*
Readout: pIC50

Query: What measured pIC50 goes with CC(C)C[C@@H](C=O)NC(=O)[C@H](CC(C)C)NC(=O)[C@H](CC(C)C)NC(=O)OCc1ccccc1 [MG-132] (Cbz-Leu-Leu-Leu-aldehyde) ?
Reply: < 6.00

---

# Test system: DMS-114
# Experiment notes: cells
# Format: functional, cell-based, Homo sapiens
# Measurement context: Homo sapiens, DMS-114
Readout: IC50

Here are 3 compounds together with their reported answers.
[
  {
    "Mol smiles": "COC(=O)[C@H](CCSC)NC(=O)c1ccc(NC[C@@H](N)CS)cc1-c1ccccc1",
    "IC50": "> 1020 nM"
  },
  {
    "Mol smiles": "O=S(=O)(O)c1ccc2cc(/N=N/c3cc(S(=O)(=O)O)c4cccnc4c3O)ccc2c1",
    "IC50": "> 16000 nM"
  },
  {
    "Mol smiles": "CC1(C)CCC(c2ccc(Cl)cc2)=C(CN2CCN(c3ccc(C(=O)NS(=O)(=O)c4ccc(N[C@H](CCN5CCOCC5)CSc5ccccc5)c(S(=O)(=O)C(F)(F)F)c4)cc3)CC2)C1",
    "IC50": "> 2000 nM"
  }
]

List the reported IC50 of each compound below.
1. C[C@@H](Oc1cc(-c2cnn(C3CCNCC3)c2)cnc1N)c1c(Cl)ccc(F)c1Cl
2. Cc1cc(N2CCOCC2)cc2[nH]c(-c3c(NC[C@@H](O)c4cccc(Cl)c4)cc[nH]c3=O)nc12
3. NC(=O)c1cccc(-c2cc(Nc3ccc(OC(F)(F)F)cc3)ncn2)c1
4. CC(C)C[C@H](NC(=O)[C@H](Cc1ccccc1)NC(=O)c1cnccn1)B(O)O
5. CN(NC(=O)CC(=O)NN(C)C(=S)c1ccccc1)C(=S)c1ccccc1
6. O=C1NC(=O)c2c1c(-c1ccccc1Cl)cc1[nH]c3ccc(O)cc3c21

Reply:
> 2000 nM
> 5120 nM
> 1280 nM
9.62 nM
9.43 nM
> 2000 nM

---

Would you mind telling me the reported pIC50 of each entry?
# Tested on: MS-1
# Experiment notes: cells
# Assay type: functional, cell-based, Homo sapiens
# Measurement context: Homo sapiens, MS-1
# Description: SANGER: Inhibition of human MS-1 cell growth in a cell viability assay.
pIC50: −log10 of the molar value.

[
  {
    "Molecule": "OC[C@H](Cc1ccccc1)Nc1nc(Oc2ccc3c(c2)CCC3)nc2c1ncn2Cc1ccc(-c2ccccc2)cc1",
    "pIC50": "< 4.99"
  }
]

Quick one: give me pIC50 for each item below, same order please.
1. CC1(C)CCC(c2ccc(Cl)cc2)=C(CN2CCN(c3ccc(C(=O)NS(=O)(=O)c4ccc(N[C@H](CCN5CCOCC5)CSc5ccccc5)c(S(=O)(=O)C(F)(F)F)c4)cc3)CC2)C1
2. CS(=O)(=O)N1CCN(Cc2cc3nc(-c4cccc5[nH]ncc45)nc(N4CCOCC4)c3s2)CC1
3. O=C(NCCCNc1nc(Nc2cccc(NC(=O)N3CCCC3)c2)ncc1I)c1cccs1
4. CN(C)CCOc1ccc(-c2nc(-c3ccncc3)c(-c3ccc4c(c3)CC/C4=N\O)[nH]2)cc1
5. C=CC(=O)N1CCCC(Nc2nc(Nc3ccc(N(C)C(=O)CC)cc3)nc3[nH]cnc23)C1 (configuration not stated)
6. Nc1ccccc1NC(=O)c1ccc(CNC(=O)OCc2cccnc2)cc1

Reply:
1: 6.33; 2: < 5.40; 3: < 5.30; 4: < 5.30; 5: < 4.99; 6: < 5.30
